Target: Adrenergic receptor alpha-2 (Homo sapiens, UniProt P08913+P18825+P18089)
Sequence (P08913 whole entry): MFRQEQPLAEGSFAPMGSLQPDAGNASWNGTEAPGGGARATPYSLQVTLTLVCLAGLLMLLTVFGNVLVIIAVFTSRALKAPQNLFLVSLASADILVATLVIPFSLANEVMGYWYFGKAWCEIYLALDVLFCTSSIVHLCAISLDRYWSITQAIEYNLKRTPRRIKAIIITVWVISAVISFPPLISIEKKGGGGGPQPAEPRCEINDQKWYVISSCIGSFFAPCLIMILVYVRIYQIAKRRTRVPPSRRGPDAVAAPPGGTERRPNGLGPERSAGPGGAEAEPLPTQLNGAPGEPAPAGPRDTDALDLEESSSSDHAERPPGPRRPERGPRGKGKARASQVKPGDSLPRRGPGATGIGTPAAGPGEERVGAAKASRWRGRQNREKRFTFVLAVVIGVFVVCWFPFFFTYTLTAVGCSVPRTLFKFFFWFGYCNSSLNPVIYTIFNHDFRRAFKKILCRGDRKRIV
Sequence (P18825 whole entry): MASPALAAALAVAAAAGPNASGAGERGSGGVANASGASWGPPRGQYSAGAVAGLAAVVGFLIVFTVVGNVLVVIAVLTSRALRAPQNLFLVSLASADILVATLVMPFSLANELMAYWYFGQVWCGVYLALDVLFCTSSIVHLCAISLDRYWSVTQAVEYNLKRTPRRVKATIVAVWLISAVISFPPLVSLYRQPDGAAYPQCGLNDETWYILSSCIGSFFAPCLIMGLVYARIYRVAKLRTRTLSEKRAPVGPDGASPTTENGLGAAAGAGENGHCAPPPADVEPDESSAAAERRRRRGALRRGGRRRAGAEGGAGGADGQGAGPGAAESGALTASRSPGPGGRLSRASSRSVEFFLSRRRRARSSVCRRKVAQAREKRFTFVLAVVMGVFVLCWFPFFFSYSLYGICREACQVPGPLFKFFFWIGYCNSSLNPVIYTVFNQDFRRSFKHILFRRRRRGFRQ
Sequence (P18089 whole entry): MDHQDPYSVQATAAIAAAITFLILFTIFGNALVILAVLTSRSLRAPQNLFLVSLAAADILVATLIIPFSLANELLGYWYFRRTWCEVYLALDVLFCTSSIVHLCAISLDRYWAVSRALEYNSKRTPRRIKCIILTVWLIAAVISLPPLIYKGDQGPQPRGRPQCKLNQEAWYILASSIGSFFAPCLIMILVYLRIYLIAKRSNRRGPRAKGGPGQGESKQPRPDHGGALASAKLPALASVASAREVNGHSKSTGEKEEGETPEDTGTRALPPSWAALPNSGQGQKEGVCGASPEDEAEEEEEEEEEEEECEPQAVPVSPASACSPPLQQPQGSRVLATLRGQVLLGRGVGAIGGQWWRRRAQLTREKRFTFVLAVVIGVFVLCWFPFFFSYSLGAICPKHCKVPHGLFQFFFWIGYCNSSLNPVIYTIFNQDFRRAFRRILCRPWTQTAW
Assay: Displacement of [3H]clonidine from Adrenergic alpha-2 receptor
Assay type: protein assay
Catalogue of log10 Ki readings, one per entry.
MEASURED_PARAMETER: log10 Ki (log10 of the value in µM)

1) CC1Cc2ccc(Br)cc2CN1 (racemic) = 0.04
2) CCC1Cc2ccc(Br)cc2CN1 (racemic) = 0.08
3) CCC1Cc2ccc([N+](=O)[O-])cc2CN1 (racemic) = 1.45
4) N#Cc1ccc2c(c1)CNC(C(F)(F)F)C2 (racemic) = 3.46
5) Clc1ccc2c(c1Cl)CNCC2 = -1.68
6) CS(=O)(=O)c1ccc2c(c1)CNC(C(F)(F)F)C2 (racemic) = 3.59
7) CC(C)C1Cc2ccc(Br)cc2CN1 (configuration not stated) = 0.59

Every entry's value here was drawn from ChEMBL document CHEMBL1141946.
